Tested on: CCRF-CEM
protocol_details: NCI tumour cell line growth inhibition, 48 h
Active and inactive are the calls of the source. No stated cut-off is given here; in the data, active = GI50 up to about 1.1 µM and inactive = higher.
Hi! Could you answer with just one of these? Yes = active, No = inactive

Use these answered entries as a reference point.
>  <compound>
CCC1=C(CC2NCCc3cc(OC)c(OC)cc32)CC2c3ccccc3CCN2C1 (stereo not given)

>  <class_name>
No

$$$$
>  <compound>
COc1nc(Cl)nc(N[C@H](C)c2c3ccccc3cc3ccccc23)n1

>  <class_name>
No

$$$$
>  <compound>
CCOC(=O)CC1NC(=O)CS1 (stereo not given)

>  <class_name>
No

$$$$
>  <compound>
CCCCCCCCCCCCCCC(O)C1CCC(C(O)CCC(O)CCCCCC(O)CC2=CC(C)OC2=O)O1 (stereo not given)

>  <class_name>
No

$$$$
>  <compound>
COC(=O)C1CCN(C(=O)OC(C)(C)C)CC1

>  <class_name>
No

$$$$

### Prompt Could you kindly confirm the outcome this assay logged for CC1(C)OCC(C(O)C2OC(C)(C)OC2/C=N\O)O1 (stereo not given) ?
### Response No

### Prompt Which outcome did this test record for the compound O=C1CCc2cc([N+](=O)[O-])ccc2O1 ?
### Response No

### Prompt Please indicate how the test categorized CC(C)(CN1CCCCC1)C(=O)/C=C/c1ccccc1 .
### Response No

### Prompt Dear all, I need the recorded test outcome for CCCCCCCCCCNC1CC(OC2CC(O)(C(O)CO)Cc3c(O)c4c(c(O)c32)C(=O)c2c(OC)cccc2C4=O)OC(C)C1O (stereo not given) , thank you.
### Response Yes

### Prompt Which result was noted for this compound in the test: O=C1C(SCCO)=C(SCCO)C(=O)c2ccccc21
### Response Yes

* * *

Tested on: ACHN
protocol_details: NCI tumour cell line growth inhibition, 48 h
Active and inactive are the calls of the source. Rule as the data show it: active = GI50 up to about 1.1 µM and inactive = higher.
Catalogue of GI50 values

Worked set:
>  <compound>
COc1cc(/C=C/C(=O)OC[C@H](Br)[C@H](OC(C)=O)c2ccc3c(c2)OCO3)cc(OC)c1OC

>  <endpoint>
GI50

>  <measured_result>
> 100 µM (inactive)

$$$$
>  <compound>
Cc1cn(CCCCCCOC(=O)NC(CCCNC(N)=O)C(=O)O)c(=O)[nH]c1=O (stereo unspecified)

>  <endpoint>
GI50

>  <measured_result>
> 100 µM (inactive)

$$$$
>  <compound>
Cc1cc2c(s1)C(N)CC2=O (stereo unspecified)

>  <endpoint>
GI50

>  <measured_result>
> 100 µM (inactive)

$$$$
>  <compound>
Cc1ccc(/N=N/C(=O)NNc2ccc(C)cc2Br)c(Br)c1

>  <endpoint>
GI50

>  <measured_result>
26.7 µM (inactive)

$$$$
>  <compound>
O=C(NCCCN1CCN(CCCNC(=O)Nc2cccc3ccccc23)CC1)Nc1cccc2ccccc12

>  <endpoint>
GI50

>  <measured_result>
16.3 µM (inactive)

$$$$

### Prompt Query the reported GI50 for ACHN; item: CC(C)=CC[C@]12CCN(C)[C@H]1N(S(=O)(=O)c1ccccc1)c1ccccc12
### Response > 54.2 µM (inactive)

### Prompt # get_value(readout= GI50, system= ACHN) for [N-]=[N+]=NC(c1cn(C2CC(O)C(CO)O2)c(=O)[nH]c1=O)C(Cl)I (stereo unspecified)
### Response > 100 µM (inactive)

### Prompt # value lookup — system ACHN, readout GI50, item c1cc(-c2csc(-c3ccsc3)c2)cs1
### Response > 100 µM (inactive)

### Prompt // map O=C1C(Sc2ccc3ccccc3c2)=C(Sc2ccc3ccccc3c2)C(=O)c2ccccc21 to recorded GI50 (system: ACHN)
### Response 4.55 µM (inactive)

### Prompt Look up GI50 with ACHN for this compound: CC[C@@]1(O)C(=O)OCc2c1cc1n(c2=O)Cc2c-1nc1ccc(N)cc1c2CC[Si](C)(C)C
### Response < 0.01 µM (active)

### Prompt GI50 of N#C/C1=C(\N)CCSSSC1 on ACHN?
### Response 41.7 µM (inactive)

* * *

Tested on: OVCAR-4
protocol_details: NCI tumour cell line growth inhibition, 48 h
Activity calls are given as the source filed them. No stated cut-off is given here; in the data, active = GI50 up to about 1.1 µM and inactive = higher.
Your answer must be one of the following: active, inactive

Examples with answers:
>  <compound>
C[n+]1[n-]o/c(=N\N=O)c1-c1cc(-c2/c(=N/N=O)o[n-][n+]2C)cc(-c2/c(=N\N=O)o[n-][n+]2C)c1

>  <target_entity>
OVCAR-4

>  <class_name>
inactive

$$$$
>  <compound>
Cc1cc(N(CC(C)Br)CC(C)Br)ccc1/N=N/c1ccccc1C(=O)O (configuration not stated)

>  <target_entity>
OVCAR-4

>  <class_name>
inactive

$$$$
>  <compound>
COc1ccc2c(=O)c(O)c(-c3ccc(OC)c(OC)c3)oc2c1

>  <target_entity>
OVCAR-4

>  <class_name>
active

$$$$
>  <compound>
CO[C@](C(=O)OC[C@H]1[C@@H](COC(C)=O)[C@@H]2O[C@H]1c1cc3c(cc12)OCO3)(c1ccccc1)C(F)(F)F

>  <target_entity>
OVCAR-4

>  <class_name>
inactive

$$$$

### Prompt What call does the record list for O=C(O)c1nc2ccc(C(F)(F)F)cc2nc1Nc1ccc(F)cc1 ?
### Response inactive

* * *

Test system: SK-MEL-28
protocol_details: NCI tumour cell line growth inhibition, 48 h
Calls of active or inactive are those of the source. Cut-off read from the data, not from the text of the source: active = GI50 up to about 1.1 µM and inactive = higher.
endpoint: GI50

>  <compound>
Nc1ccc(/N=N/c2c(S(=O)(=O)O)cc3ccccc3c2S(=O)(=O)O)cc1

>  <target_entity>
SK-MEL-28

>  <GI50>
> 100 µM (inactive)

$$$$
>  <compound>
Cc1oc(N)c(S(=O)(=O)/C(C#N)=C/c2ccccc2[N+](=O)[O-])c1C

>  <target_entity>
SK-MEL-28

>  <GI50>
24.2 µM (inactive)

$$$$
>  <compound>
COC1=CC(=O)[C@]2(C)[C@H](C1=O)C(C)[C@H]2c1ccccc1 (stereo partly specified)

>  <target_entity>
SK-MEL-28

>  <GI50>
> 100 µM (inactive)

$$$$
>  <compound>
N=C(N)/N=C(\N)Nc1ccc(C(=O)O)cc1

>  <target_entity>
SK-MEL-28

>  <GI50>
> 100 µM (inactive)

$$$$

### Prompt Could you tell me which GI50 is on file for CN(C)CCNc1ccc2nnn3c4ccc(O)cc4c(=O)c1c23 ?
### Response 10.9 µM (inactive)

### Prompt Query: GI50; subject: COC(=O)C1CCN(C(=O)OC(C)(C)C)CC1
### Response > 100 µM (inactive)

* * *

System: MDA-MB-435
protocol_details: NCI tumour cell line growth inhibition, 48 h
Active and inactive are the calls of the source. Cut-off read from the data, not from the text of the source: active = GI50 up to about 1.1 µM and inactive = higher.
Listing of entries alongside the reported GI50.

### Prompt # query: GI50 | item COC(=O)NC1C(C)OC(OC2C/C=C(/C)C3C=CC4C(OC5CC(OC6CC(OC7CC(O)C(O)C(C)O7)C(OC7CC(O)C(OC)C(C)O7)C(C)O6)C(O)C(C)O5)C(C)CC(C)C4C3(C)C(=O)C3=C(O)C4(CC(C)C(CO)=CC4/C=C\2C)OC3=O)CC1(C)[N+](=O)[O-] (centres undefined) | system: MDA-MB-435
### Response 9.64 µM (inactive)

### Prompt GI50 of Cc1cccc2sc(-c3ccc(O)cc3)nc12 on MDA-MB-435?
### Response 11 µM (inactive)

### Prompt API: value(readout= GI50, system= MDA-MB-435, query= CN1CCc2c(sc3ncn(Nc4ccc(F)cc4)c(=N)c23)C1 )
### Response > 100 µM (inactive)

### Prompt Please provide the recorded GI50 for Oc1[nH]c(Nc2ccc(Cl)cc2)nc2ncnc1-2 , tested on MDA-MB-435.
### Response > 100 µM (inactive)

* * *

Tested on: SN12C
protocol_details: NCI tumour cell line growth inhibition, 48 h
Calls of active or inactive are those of the source. No stated cut-off is given here; in the data, active = GI50 up to about 1.1 µM and inactive = higher.
endpoint: GI50

Here are 6 compounds together with their reported answers.
>  <compound>
Sc1nnc(COc2ccc(Cl)cc2)o1

>  <measured_result>
> 100 µM (inactive)

$$$$
>  <compound>
CCOC(=O)CCN1C(=O)c2ccc(NC(=O)C(=O)O)cc2S1(=O)=O

>  <measured_result>
> 100 µM (inactive)

$$$$
>  <compound>
COc1cc(CN(C)N2C(=O)c3cccc4cc([N+](=O)[O-])cc(c34)C2=O)cc(OC)c1OC

>  <measured_result>
> 100 µM (inactive)

$$$$
>  <compound>
CCOc1ccc(NC(=O)C(=O)Nn2c(N)nnc2N)cc1

>  <measured_result>
> 100 µM (inactive)

$$$$
>  <compound>
CC1CCC(C(C)C)C(O[C@@H]2OC(=O)C[C@@H]2Sc2ccccc2)C1 (some centres undefined)

>  <measured_result>
16.8 µM (inactive)

$$$$
>  <compound>
O=C1CCC(c2nc3cc(Cl)ccc3o2)C(=O)N1 (centres undefined)

>  <measured_result>
> 100 µM (inactive)

$$$$

### Prompt Which measured GI50 value corresponds to COC(=O)N/N=C(\C)C(CN(C)C)C(c1ccccc1)c1c(O)c2ccccc2oc1=O (centres undefined) ?
### Response > 100 µM (inactive)

### Prompt Can you look up the measured GI50 of Cc1cccc2sc(-c3ccc(O)cc3)nc12 for me?
### Response 18.2 µM (inactive)

### Prompt Given CC(C)(C)N/N=C(\Cc1occc(=O)c1O)C(=O)Nc1ccc([N+](=O)[O-])cc1[N+](=O)[O-] , state its recorded GI50.
### Response > 100 µM (inactive)

### Prompt Quick one: GI50 of CN(C)CC(O)c1ccc(Cl)c2ccccc12 (centres undefined) ?
### Response 43.3 µM (inactive)

### Prompt For the compound CCCNC1=C2C[C@@H](C)C[C@@H](OC)[C@@H](OC(=O)CCCN)[C@H](C)/C=C(\C)[C@@H](OC(N)=O)[C@H](OC)/C=C\C=C(/C)C(=O)NC(=CC1=O)C2=O , what GI50 is on record?
### Response 22.7 µM (inactive)

### Prompt Return reported GI50; argument: Cc1ccccc1NC(=O)C(=O)C(c1cnc2ccc([N+](=O)[O-])cc2n1)[N+](=O)[O-] (centres undefined)
### Response > 100 µM (inactive)

### Prompt // query GI50 value for entry C[C@]12CCC(=O)C=C1CC[C@@H]1[C@@H]2[C@@H](O)C[C@@]2(C)[C@H]1CC[C@]2(O)C(=O)COC(=O)COCC(=O)O
### Response > 100 µM (inactive)

### Prompt Can you share its GI50? I mean this compound: Oc1ccc(Cc2cc(Cl)cc(Cl)c2O)cc1Cl
### Response 15.1 µM (inactive)

### Prompt Sample Nc1nc(N)nc(-c2ccccc2NS(=O)(=O)c2ccc([N+](=O)[O-])cc2)n1 — what was its GI50?
### Response 97.3 µM (inactive)
